Values were extracted from ChEMBL document CHEMBL2150888.

Experiment: Toxicity in human Caco2 cells assessed as cell viability at 200 uM incubated for 2 hrs by CellTiter-Glo assay
Format: cell-based
Conditions: Caco-2 cells, read-out: Activity
*1 amine or outer side, *2 acyl side, *3 side chain or, on linkers, in order; H or OH if unused. Where a SMILES comes first, the peptide text is derived from it. [ ]: non-standard residue; d: D form. X1 = O=C(CCc1cccc2c1oc1c(CCN[*:1])cccc12)[*:2]
MEASURE NAME: viability at 2 h, 200 µM (%)
# number only, unit % dropped from output

Problem: Query: viability at 2 h, 200 µM; subject: CC[C@H](C)[C@@H]1NC(=O)[C@H](Cc2ccc(O)cc2)NC(=O)[C@H](CC(=O)O)NC(=O)CCc2cccc3c2Oc2c(cccc2-3)CCNC(=O)[C@H](CC(=O)O)NC(=O)[C@H](CC(=O)O)NC(=O)[C@H](CCCCN)NC1=O (cyclo(DD[X1]DYIK))
Result: 90
